Assay: chemical genetic growth profiling, strain panel (AID 1159580);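 also: tested at 20 µM; growth read once vehicle control cultures reached saturation at 30 °C; 1 = growth at the plate median or of vehicle wells; lower values mean less growth of the strain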
Settings: S. cerevisiae deletion strains, growth OD, locus YNL322C, strain KRE1 (second series), active compounds read low
The whole screen tested about 5,500 compounds, of which about 2,000 (36%) were called active. Another 18% or so got no clear call; they are omitted. The list shows a part of the results.
Readings of normalized growth for the listed molecules
Please respond with just the number, no unit label.

# molecule, reported_property, observed_value
measured = [
    ("O=C(O)c1cc2ccccc2[nH]1", "normalized growth", 0.979),
    ("CC(C)(O)[C@@H]1[C@H]2OC(=O)[C@@H]1[C@]1(O)C[C@H]3O[C@]34C(=O)O[C@H]2[C@]14C", "normalized growth", 0.998),
    ("CC1=C(C(C)O)C2=NC1C=c1[nH]c(c(C)c1C(C)O)=Cc1[nH]c(c(CCC(=O)O)c1C)C=c1[nH]c(c(C)c1CCC(=O)O)=C2 (centres undefined)", "normalized growth", 0.99),
]

Please list normalized growth recorded for the molecule C[C@H]1CC2C([C@@H](O)C[C@@]3(C)C2CC[C@]3(O)C(=O)CO)[C@@]2(C)C=CC(=O)C=C12 (some centres undefined)
1

Please list normalized growth recorded for the molecule `COc1cc(/C=C/C(=O)/C=C(O)/C=C/c2ccc(O)c(OC)c2)ccc1O`
0.16

Please list normalized growth recorded for the molecule `CC(=O)OCC[N+](C)(C)C`
1.07

---

Assay: chemical genetic growth profiling, strain panel (AID 1159580);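 also: tested at 20 µM; growth read once vehicle control cultures reached saturation at 30 °C; 1 = growth at the plate median or of vehicle wells; lower values mean less growth of the strain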
Details: S. cerevisiae deletion strains, growth OD, locus YNL020C, strain ARK1, active compounds read low
About 2,000 (36%) of roughly 5,500 compounds were called active. About 18% were inconclusive and are not listed. The list shows a part of the results.
Readings of normalized growth for the listed compounds
Please respond with just the number, no unit label.

# chemical_structure, observed_value
records = [
    ("O=S(=O)(Nc1cccc(CCc2ccccn2)c1)c1cc(Cl)c(Cl)cc1Cl", 0.969),
    ("CC(=O)CSc1nnc(-c2ccc(C(C)(C)C)cc2)n1-c1ccc(Cl)cc1", 0.999),
]

Please list normalized growth recorded for the compound `COc1ccc(/C=C2\CSc3ccc(F)cc3C2=O)cc1`
0.955

Please list normalized growth recorded for the compound `Cc1cc(C(=O)NNc2ccc(F)cc2F)no1`
0.953

Please list normalized growth recorded for the compound `Cc1ccc2nc(-c3ccc(Cl)cc3)cn2c1`
0.946

---

Test: chemical genetic growth profiling, strain panel (AID 1159580);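 also: tested at 20 µM; growth read once vehicle control cultures reached saturation at 30 °C; 1 = growth at the plate median or of vehicle wells; lower values mean less growth of the strain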
Conditions: S. cerevisiae deletion strains, growth OD, locus YLR371W, strain rom2, active compounds read low
In all, about 5,500 compounds went through this assay and about 2,000 (36%) were called active. Roughly 18% stayed inconclusive and do not appear here. Some of the results follow.
Readings of normalized growth for the listed molecules
Please respond with just the number, no unit label.

Please list normalized growth recorded for the molecule CC(Oc1ccccc1)C(=O)N[C@@H]1C(=O)N2[C@@H]1SC(C)(C)[C@@H]2C(=O)O (stereo partly specified)
1.02

---

Assay: chemical genetic growth profiling, strain panel (AID 1159580);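 also: tested at 20 µM; growth read once vehicle control cultures reached saturation at 30 °C; 1 = growth at the plate median or of vehicle wells; lower values mean less growth of the strain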
Details: S. cerevisiae deletion strains, growth OD, locus YER167W, strain BCK2, active compounds read low
Out of some 5,500 compounds screened, about 2,000 (36%) were called active. Another 18% or so got no clear call; they are omitted. Some of the results follow.
reported_property: normalized growth
Please respond with just the number, no unit label.

Examples with their reported normalized growth follow.
# molecule, normalized growth
measured = [
    ("COc1cc2c(cc1OC)Cc1cc(OC)c(OC)cc1Cc1cc(OC)c(OC)cc1C2", 1.01),
    ("CS(=O)(=O)c1ccc(C2=C(c3ccccc3)C(=O)OC2)cc1", 0.989),
    ("COP(=O)(OC)OC=C(Cl)Cl", 0.988),
    ("Cc1c(O)c(C(=O)CC(C)C)c2oc3c(C(=O)CC(C)C)c(O)c(C)c(O)c3c2c1O", 0.996),
    ("C=C(C)C1CNC(C(=O)O)C1CC(=O)O (centres undefined)", 1.01),
    ("CC(C)OC(=O)C(C)(C)Oc1ccc(C(=O)c2ccc(Cl)cc2)cc1", 0.987),
]

Please list normalized growth recorded for the molecule `O=C(CC[N+](=O)[O-])OC[C@H]1O[C@@H](O)[C@H](OC(=O)CC[N+](=O)[O-])[C@@H](OC(=O)CC[N+](=O)[O-])[C@@H]1OC(=O)CC[N+](=O)[O-]`
1.02

Attribution: PubChem BioAssay AID1159580
